test: Noncompartmental pharmacokinetic parameters (Cmax, Tmax, AUC, Racc) in QD and BID cohorts of Form B; assay type: in vivo, human; settings: human, plasma, oral, 400 mg, Compound III; 400 mg QD of Form B; Cohort 3; Day 29; read-out: Tmax (Mean)
REPORTED ENDPOINT: Tmax (h)

cpd_smiles=O=C1NCC2(CCCCC2)n2c1cc1cnc(Nc3ccc(N4CCNCC4)cn3)nc12 reported_endpoint=Tmax result_units=h observed=5.33

----------
test: Plasma concentration versus time of Compound I and metabolite Compound III in patients dosed QD or BID with Form B of Compound II plus fulvestrant; format: in vivo, human; conditions: human, plasma, oral, 100 mg, 100 mg BID of Form B, Day 1, 12.0 h, Median; read-out: Compound I Concentration
REPORTED ENDPOINT: concentration at 12 h

cpd_smiles=CC(C)N1CCN(c2ccc(Nc3ncc4cc5n(c4n3)C3(CCCCC3)CNC5=O)nc2)CC1 reported_endpoint="concentration at 12 h" observed="2.2 ng/mL"

----------
assay: Plasma concentration versus time of Compound I and metabolite Compound III in patients dosed QD or BID with Form B of Compound II plus fulvestrant; assay type: in vivo, human; conditions: human, plasma, oral, 100 mg, Cohort 6, 100 mg BID of Form B, Day 29, 4.0 h; read-out: Compound I Concentration, Max
REPORTED ENDPOINT: concentration at 4 h (ng/mL)

cpd_smiles=CC(C)N1CCN(c2ccc(Nc3ncc4cc5n(c4n3)C3(CCCCC3)CNC5=O)nc2)CC1 reported_endpoint="concentration at 4 h" observed=19.8

----------
assay: Plasma concentration versus time of Compound I and metabolite Compound III in patients dosed QD or BID with Form B of Compound II plus fulvestrant; format: in vivo, human; conditions: human, plasma, oral, 500 mg, 500 mg QD of Form B, Day 29, 2.0 h, Mean; read-out: Compound I Concentration
REPORTED ENDPOINT: concentration at 2 h (ng/mL)

cpd_smiles=CC(C)N1CCN(c2ccc(Nc3ncc4cc5n(c4n3)C3(CCCCC3)CNC5=O)nc2)CC1 reported_endpoint="concentration at 2 h" result_units=ng/mL observed=34.2

----------
assay: Plasma concentration versus time of Compound I and metabolite Compound III in patients dosed QD or BID with Form B of Compound II plus fulvestrant; assay type: in vivo, human; settings: human, plasma, oral, 100 mg, 100 mg BID of Form B, Day 1, 0.0 h, Mean; read-out: Compound I Concentration
REPORTED ENDPOINT: concentration at 0 h (ng/mL)

cpd_smiles=CC(C)N1CCN(c2ccc(Nc3ncc4cc5n(c4n3)C3(CCCCC3)CNC5=O)nc2)CC1 reported_endpoint="concentration at 0 h" observed=0

----------
assay: Plasma concentration versus time of Compound I and metabolite Compound III in patients dosed QD or BID with Form B of Compound II plus fulvestrant; type: in vivo, human; conditions: human, plasma, oral, 150 mg, 150 mg BID of Form B, Day 1, 0.0 h, Median; read-out: Compound III Concentration
REPORTED ENDPOINT: concentration at 0 h (ng/mL)

cpd_smiles=O=C1NCC2(CCCCC2)n2c1cc1cnc(Nc3ccc(N4CCNCC4)cn3)nc12 reported_endpoint="concentration at 0 h" result_units=ng/mL observed=0

----------
test: Plasma concentration versus time of Compound I and metabolite Compound III in patients dosed QD or BID with Form B of Compound II plus fulvestrant; format: in vivo, human; conditions: human, plasma, oral, 100 mg, Cohort 6, 100 mg BID of Form B, Day 8; read-out: Trough Compound I Concentration, Max
REPORTED ENDPOINT: concentration at 8 day (µg/mL)

cpd_smiles=CC(C)N1CCN(c2ccc(Nc3ncc4cc5n(c4n3)C3(CCCCC3)CNC5=O)nc2)CC1 reported_endpoint="concentration at 8 day" result_units=µg/mL observed=0.0237
